# TARGET_OR_SYSTEM: Chromatin remodeling regulator CECR2 (Homo sapiens)
# Sequence (Q9BXF3 whole entry, the tested form may be a part): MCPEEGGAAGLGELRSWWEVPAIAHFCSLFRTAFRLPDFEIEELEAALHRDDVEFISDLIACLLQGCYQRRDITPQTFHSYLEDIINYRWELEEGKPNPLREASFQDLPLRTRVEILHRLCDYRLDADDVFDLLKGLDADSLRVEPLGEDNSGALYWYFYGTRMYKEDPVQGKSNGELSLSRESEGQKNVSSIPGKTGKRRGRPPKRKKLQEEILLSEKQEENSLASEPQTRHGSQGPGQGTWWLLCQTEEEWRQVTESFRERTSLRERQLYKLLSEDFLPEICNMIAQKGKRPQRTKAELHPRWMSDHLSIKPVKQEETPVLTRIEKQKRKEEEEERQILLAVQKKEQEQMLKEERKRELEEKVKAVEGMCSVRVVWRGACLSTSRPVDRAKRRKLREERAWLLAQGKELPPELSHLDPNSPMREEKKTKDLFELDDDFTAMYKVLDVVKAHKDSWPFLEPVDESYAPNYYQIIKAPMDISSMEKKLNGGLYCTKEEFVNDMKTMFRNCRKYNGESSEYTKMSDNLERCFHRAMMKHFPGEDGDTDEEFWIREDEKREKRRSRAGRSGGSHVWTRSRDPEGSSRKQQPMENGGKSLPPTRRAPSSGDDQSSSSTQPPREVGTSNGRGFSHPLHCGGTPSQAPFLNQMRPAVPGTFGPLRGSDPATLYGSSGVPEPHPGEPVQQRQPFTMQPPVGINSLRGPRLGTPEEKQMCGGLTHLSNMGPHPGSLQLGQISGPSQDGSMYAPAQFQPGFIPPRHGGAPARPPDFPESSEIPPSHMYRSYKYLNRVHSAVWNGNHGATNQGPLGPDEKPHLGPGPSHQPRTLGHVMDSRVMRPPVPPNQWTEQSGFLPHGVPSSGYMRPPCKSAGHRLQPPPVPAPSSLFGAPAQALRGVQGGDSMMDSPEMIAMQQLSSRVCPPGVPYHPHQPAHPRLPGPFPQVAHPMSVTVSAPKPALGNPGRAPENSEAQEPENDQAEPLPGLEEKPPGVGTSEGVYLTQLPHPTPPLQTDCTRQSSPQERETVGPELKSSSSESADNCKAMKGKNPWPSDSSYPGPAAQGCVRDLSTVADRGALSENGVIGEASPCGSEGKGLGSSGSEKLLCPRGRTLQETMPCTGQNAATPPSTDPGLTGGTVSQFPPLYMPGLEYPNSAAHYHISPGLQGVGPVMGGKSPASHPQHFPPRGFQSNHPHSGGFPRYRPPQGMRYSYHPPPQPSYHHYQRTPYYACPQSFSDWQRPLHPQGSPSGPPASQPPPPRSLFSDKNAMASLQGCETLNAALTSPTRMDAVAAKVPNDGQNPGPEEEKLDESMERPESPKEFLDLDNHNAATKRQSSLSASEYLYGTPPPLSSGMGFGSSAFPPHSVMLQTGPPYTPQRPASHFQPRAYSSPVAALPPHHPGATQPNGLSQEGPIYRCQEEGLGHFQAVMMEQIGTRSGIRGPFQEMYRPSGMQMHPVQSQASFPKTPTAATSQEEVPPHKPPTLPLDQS
# MEASUREMENT_PROTOCOL: Binding affinity to human partial length CECR2 (P423 to D543 residues) expressed in bacterial expression system by BROMOscan assay
pKd overview
// scale note: pKd = -log10(conc_M); give the bare number

// pKd value for `C/C=C/Cn1cc(-c2cc(OC)c(C(=O)N3CCOCC3)cc2OC)c2cc(C)[nH]c2c1=O` : 5.44

***
pKd in this record for `C/C=C/Cn1cc(-c2ccc(C(=O)N3CCOCC3)cc2)c2cc[nH]c2c1=O` : 5.42

====

# TARGET_OR_SYSTEM: Bromodomain-containing protein 3 (Homo sapiens)
# Sequence (Q15059 whole entry, the tested form may be a part): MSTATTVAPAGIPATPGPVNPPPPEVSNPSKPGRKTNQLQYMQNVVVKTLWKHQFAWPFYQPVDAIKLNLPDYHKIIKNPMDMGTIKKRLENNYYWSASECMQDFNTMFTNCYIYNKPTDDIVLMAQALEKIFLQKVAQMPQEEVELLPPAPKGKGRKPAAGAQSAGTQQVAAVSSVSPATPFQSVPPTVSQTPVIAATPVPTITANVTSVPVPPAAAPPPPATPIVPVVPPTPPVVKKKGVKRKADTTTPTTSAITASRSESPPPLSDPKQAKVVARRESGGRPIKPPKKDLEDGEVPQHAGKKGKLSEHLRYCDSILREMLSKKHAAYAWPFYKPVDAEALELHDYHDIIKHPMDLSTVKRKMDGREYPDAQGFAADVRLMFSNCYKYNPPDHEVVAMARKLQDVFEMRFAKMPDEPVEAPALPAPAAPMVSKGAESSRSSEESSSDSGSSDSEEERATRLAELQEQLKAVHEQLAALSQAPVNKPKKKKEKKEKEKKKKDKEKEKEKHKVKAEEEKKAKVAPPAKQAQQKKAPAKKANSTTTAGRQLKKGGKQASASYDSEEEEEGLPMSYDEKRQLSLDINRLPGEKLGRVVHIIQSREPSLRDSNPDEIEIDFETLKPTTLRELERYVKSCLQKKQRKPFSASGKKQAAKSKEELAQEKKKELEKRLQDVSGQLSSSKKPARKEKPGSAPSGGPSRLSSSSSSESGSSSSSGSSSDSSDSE
# MEASUREMENT_PROTOCOL: Binding affinity to human partial length BRD3 bromodomain 1 (P24 to E144 residues) expressed in bacterial expression system by BROMOscan assay
MEASURED_QUANTITY: Kd (µM)
API: value field is a number in µM; no unit string.

Answered examples (2):
The value of Kd measured for the compound `C/C=C/Cn1cc(-c2ccc(C(=O)N3CCOCC3)cc2)c2cc[nH]c2c1=O` turned out to be 6.3

`C/C=C/Cn1cc(-c2ccc(C(C)(C)O)cc2OC)c2cc[nH]c2c1=O` yielded Kd of 3.2

We now examine a further compound.
Kd recorded for this compound, `C/C=C/Cn1cc(-c2cc(OC)c(C(C)(C)O)cc2OC)c2cc(C)[nH]c2c1=O` , is 9.2

====

pIC50 values by entry
# System: Hs 294T
# MEASUREMENT_PROTOCOL: Cytotoxicity against human Hs294T cells measured after 8 days
# Format: functional, cell-based
# SETUP_CONDITIONS: 192 h
Interpret pIC50 as the negative base-10 log of the concentration measured in mol/L.

Examples with answers:
For record `C/C=C/Cn1cc(-c2cc(OC)c(C(=O)N3CCOCC3)cc2OC)c2cc(C)[nH]c2c1=O` the listed pIC50 is 5.70

Lab note: `C/C=C/Cn1cc(-c2ccc(C(C)(C)O)cc2OC)c2cc[nH]c2c1=O` gave pIC50 of 4.70

---
response.value for `C/C=C/Cn1cc(-c2ccc(C(=O)N3CCOCC3)cc2)c2cc[nH]c2c1=O` (field: pIC50) = 4.70

====

# System: HBL-100
# MEASUREMENT_PROTOCOL: Cytotoxicity against human HBL-100 cells measured after 8 days
# Assay type: functional, cell-based
# SETUP_CONDITIONS: HBL-100, 192 h
MEASURED_QUANTITY: pIC50
// pIC50: -log10(molar conc.)

Looking up `C/C=C/Cn1cc(-c2cc(OC)c(C(=O)N3CCOCC3)cc2OC)c2cc(C)[nH]c2c1=O` , I see its pIC50 listed as 5.70

====

Reported pIC50 values are given for each entry in this list.
# Tested on: Rec1
# MEASUREMENT_PROTOCOL: Cytotoxicity against human REC1 cells measured after 8 days
# Format: functional, cell-based
# SETUP_CONDITIONS: Rec1, 192 h
The meaning of pIC50 here: minus log10 of the concentration in molar units.

Field pIC50 (entry `C/C=C/Cn1cc(-c2ccc(C(C)(C)O)cc2OC)c2cc[nH]c2c1=O` ) reads 4.78

Memo: `C/C=C/Cn1cc(-c2ccc(C(=O)N3CCOCC3)cc2)c2cc[nH]c2c1=O` , reported pIC50: 4.70
